B1: ZNF449 (parent)
chain: HKKKSPGEKPHRCPQCGKCFARKS

variants of: B1; assay: protein stability index of a GFP-peptide fusion (GPS, HEK-293T) (PSI 1-6); higher = more stable; conditions: c terminus: a fixed tail appended;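 also: lentivirally expressed fusions sorted by FACS into six bins by GFP to DsRed ratio, PSI derived from sequencing read proportions per bin multiplied by bin number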

- Variant Name: "C16R"
  protein stability index: 3.42
- Variant Name: "R22D"
  protein stability index: 3.82
- Variant Name: "R22T"
  protein stability index: 4.06
- Variant Name: "C19N"
  protein stability index: 3.79
- Variant Name: "K9R"
  protein stability index: 3.94
- Variant Name: "K2Y"
  protein stability index: 2.37
- Variant Name: "K23W"
  protein stability index: 2.68
- Variant Name: "G7M"
  protein stability index: 3.46
- Variant Name: "R22L"
  protein stability index: 3.64
- Variant Name: "C16G"
  protein stability index: 4.53
- Variant Name: "E8V"
  protein stability index: 3.79
- Variant Name: "E8C"
  protein stability index: 3.64
- Variant Name: "H1W"
  protein stability index: 2.7
- Variant Name: "R12K"
  protein stability index: 3.98
- Variant Name: "C16T"
  protein stability index: 3.71
- Variant Name: "E8N"
  protein stability index: 2.75
- Variant Name: "C13N"
  protein stability index: 4.95
- Variant Name: "K18I"
  protein stability index: 2.52
- Variant Name: "G7Y"
  protein stability index: 3.55
- Variant Name: "K3M"
  protein stability index: 3.42
- Variant Name: "S24P"
  protein stability index: 3.76
- Variant Name: "E8H"
  protein stability index: 3.92
